assay: gMDCK (P-gp knockout MDCK) monolayer permeability assay; settings: dog, MDCK, pH 7.4, Lenalidomide Permeability in gMDCK Cells, shaking (1000 rpm), 50 uM
value_kind: Papp at 3 h, 50 µM (×10⁻⁶ cm/s)
Entry rule: numbers only, all in ×10⁻⁶ cm/s.

Look up Papp at 3 h, 50 µM of Nc1cccc2c1CN(C1CCC(=O)NC1=O)C2=O (stereo not shown) [Lenalidomide] and report it. 0.03

* * *

experiment: in vitro; details: human, pH 7.4
value_kind: Papp at 3 h (×10⁻⁶ cm/s)
Entry rule: numbers only, all in ×10⁻⁶ cm/s.

Look up Papp at 3 h of COCCc1ccc(OCC(O)CNC(C)C)cc1 (stereo not shown) and report it. 10.1

This collection of values is drawn from paper PMC12473906.
